All values here come from the supplement of paper PMC10567573.

B1: LOXL2 (parent)
chain: HISSCKLGPQVSLDPMKNVTCENG

# Variants of: B1
# assayExplanation: protein stability index of a GFP-peptide fusion (GPS, HEK-293T) (PSI 1-6); higher = more stable;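 note: lentivirally expressed fusions sorted by FACS into six bins by GFP to DsRed ratio, PSI derived from sequencing read proportions per bin multiplied by bin number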
# measurementConditions: c terminus: a fixed tail appended
As shown below, each of these variants has a reported protein stability index value.
reportedMetric: protein stability index

{"mutantName": "N23S", "reportedMetric": "protein stability index", "resultNumber": 3.91}
{"mutantName": "S12P", "reportedMetric": "protein stability index", "resultNumber": 4.18}
{"mutantName": "P15Y", "reportedMetric": "protein stability index", "resultNumber": 2.84}
{"mutantName": "N23R", "reportedMetric": "protein stability index", "resultNumber": 3.58}
{"mutantName": "N18M", "reportedMetric": "protein stability index", "resultNumber": 3.42}
{"mutantName": "L7T", "reportedMetric": "protein stability index", "resultNumber": 4.54}
{"mutantName": "K17S", "reportedMetric": "protein stability index", "resultNumber": 4.02}
{"mutantName": "P15A", "reportedMetric": "protein stability index", "resultNumber": 3.86}
{"mutantName": "L7N", "reportedMetric": "protein stability index", "resultNumber": 4.37}
{"mutantName": "C21V", "reportedMetric": "protein stability index", "resultNumber": 4.1}
{"mutantName": "P9E", "reportedMetric": "protein stability index", "resultNumber": 4.36}
{"mutantName": "L7M", "reportedMetric": "protein stability index", "resultNumber": 4.31}
{"mutantName": "V19L", "reportedMetric": "protein stability index", "resultNumber": 3.77}
{"mutantName": "S12R", "reportedMetric": "protein stability index", "resultNumber": 3.48}
{"mutantName": "V19G", "reportedMetric": "protein stability index", "resultNumber": 4.15}
{"mutantName": "S3K", "reportedMetric": "protein stability index", "resultNumber": 4.01}
{"mutantName": "C5N", "reportedMetric": "protein stability index", "resultNumber": 3.29}
{"mutantName": "I2T", "reportedMetric": "protein stability index", "resultNumber": 4.54}
{"mutantName": "V19R", "reportedMetric": "protein stability index", "resultNumber": 4.26}
{"mutantName": "S4L", "reportedMetric": "protein stability index", "resultNumber": 3.6}
{"mutantName": "C5T", "reportedMetric": "protein stability index", "resultNumber": 4.54}
{"mutantName": "Q10F", "reportedMetric": "protein stability index", "resultNumber": 3.07}
